- assay.summary: Inhibitory activity against the hepatitis C virus NS3 protease was determined
- Set-up: species or system Hepacivirus hominis
reported.metric: IC50 (µM)

P = CC(=O)N[C@H](C(=O)N[C@H](C(=O)N1C[C@H](OCc2cccc3ccccc23)C[C@H]1C(=O)N[C@]1(C(=O)O)C[C@H]1CCc1ccccc1)C(C)C)C1CCCCC1
Q = CC(=O)N[C@H](C(=O)N[C@H](C(=O)N1CC(OCc2cccc3ccccc23)CC1C(=O)N[C@@]1(C(=O)O)C[C@@H]1C)C(C)C)C1CCCCC1 (single isomer, unassigned)
R = CC[C@@H]1C[C@]1(NC(=O)C1CC(OCc2cccc3ccccc23)CN1C(=O)[C@@H](NC(=O)[C@@H](NC(C)=O)C1CCCCC1)C(C)C)C(=O)O (single isomer, unassigned)
[ask] Please list these compounds in decreasing order of IC50. # format: label list in the order the request specifies
[reply] Q, P, R
(Q: 180 µM, P: 22 µM, R: 4.8 µM)

P = CC(=O)N[C@H](C(=O)N[C@H](C(=O)N1CC(OCc2ccccc2)CC1C(=O)N[C@@H](CS)C(=O)O)C(C)C)C1CCCCC1 (single isomer, unassigned)
Q = CC(=O)N[C@H](C(=O)N[C@H](C(=O)N1C[C@H](OCc2cccc3ccccc23)C[C@H]1C(=O)N[C@@]1(C(=O)O)C[C@@H]1C(C)C)C(C)C)C1CCCCC1
[ask] Lab note: check whether P or Q shows the higher recorded IC50. Your answer should be the label attached to the chosen record.
[reply] Q
(Q: 640 µM, P: 140 µM)

====

- assay.summary: Inhibitory activity against the hepatitis C virus NS3 protease was determined
- Set-up: species or system Hepacivirus hominis
reported.metric: IC50 (µM)

Recorded IC50, per entry:
molecule | units.label | IC50
CC(=O)N[C@H](C(=O)N[C@H](C(=O)N1C[C@H](OCc2cccc3ccccc23)C[C@H]1C(=O)N[C@]1(C(=O)O)C[C@H]1C(C)C)C(C)C)C1CCCCC1 | µM | 5.5
CCC1(CC)C[C@]1(NC(=O)C1CC(OCc2cccc3ccccc23)CN1C(=O)[C@@H](NC(=O)[C@@H](NC(C)=O)C1CCCCC1)C(C)C)C(=O)O (single isomer, unassigned) | µM | 310

A = C=C[C@@H]1C[C@]1(NC(=O)C1CC(Oc2ccnc3cc(OC)ccc23)CN1C(=O)[C@@H](NC(=O)[C@@H](NC(C)=O)C1CCCCC1)C(C)C)C(=O)O (single isomer, unassigned)
B = CC(=O)N[C@H](C(=O)N[C@H](C(=O)N1CC(Oc2cc(-c3ccccc3)nc3ccccc23)CC1C(=O)NC1(C(=O)O)CC1)C(C)C)C1CCCCC1 (single isomer, unassigned)
C = CCC[C@H](NC(=O)C1CC(OCc2ccccc2)CN1C(=O)[C@@H](NC(=O)[C@@H](NC(C)=O)C1CCCCC1)C(C)C)C(=O)O (single isomer, unassigned)
[ask] Would you mind ranking these molecules by ascending IC50? In your reply, arrange the labels in the requested order.
[reply] A, B, C
(A: 0.029 µM, B: 0.55 µM, C: 530 µM)

====

- assay.summary: Inhibitory activity against the hepatitis C virus NS3 protease was determined
- Set-up: species or system Hepacivirus hominis
pIC50: −log10 of the molar value.
reported.metric: pIC50

compound | result.number
C=C[C@@H]1C[C@]1(NC(=O)C1CC(OCc2ccccc2)CN1C(=O)[C@@H](NC(=O)[C@@H](NC(C)=O)C1CCCCC1)C(C)C)C(=O)O (single isomer, unassigned) | 5.01

a = CC(=O)N[C@H](C(=O)N[C@H](C(=O)N1CC(OCc2cccc3ccccc23)CC1C(=O)NC1(C(=O)O)CC1)C(C)C)C1CCCCC1 (single isomer, unassigned)
b = CC(=O)N[C@H](C(=O)N[C@H](C(=O)N1C[C@H](OCc2cccc3ccccc23)C[C@H]1C(=O)N[C@@]1(C(=O)O)C[C@@H]1Cc1ccccc1)C(C)C)C1CCCCC1
c = CCC[C@@H]1C[C@]1(NC(=O)C1CC(OCc2cccc3ccccc23)CN1C(=O)[C@@H](NC(=O)[C@@H](NC(C)=O)C1CCCCC1)C(C)C)C(=O)O (single isomer, unassigned)
[ask] Order the items by recorded pIC50; the first position goes to the largest value. Return value: ordered labels per request.
[reply] c, a, b
(c: 5.26, a: 4.85, b: 4.09)

====

- assay.summary: Inhibitory activity against the hepatitis C virus NS3 protease was determined
- Design: species or system Hepacivirus hominis
pIC50: −log10 of the molar value. Where a SMILES comes first, the peptide text is derived from it. [ ]: non-standard residue; d: D form. Hyp(2-Ph-quinolin-4-yl) = O=C(O)[C@@H]1C[C@@H](Oc2cc(-c3ccccc3)nc3ccccc23)CN1; Ac3c(1R,2S-2-vinyl) = C=C[C@@H]1C[C@]1(N)C(=O)O; Chg = N[C@H](C(=O)O)C1CCCCC1
reported.metric: pIC50

Here's what some known entries look like.
compound | result.number
CCC[C@H](NC(=O)C1CC(OCc2cccc3ccccc23)CN1C(=O)[C@@H](NC(=O)[C@@H](NC(C)=O)C1CCCCC1)C(C)C)C(=O)O (single isomer, unassigned) | 4.64
CCC[C@H]1C[C@@]1(NC(=O)C1CC(OCc2cccc3ccccc23)CN1C(=O)[C@@H](NC(=O)[C@@H](NC(C)=O)C1CCCCC1)C(C)C)C(=O)O (single isomer, unassigned) | 4.39
CC[C@H]1C[C@@]1(NC(=O)C1CC(OCc2cccc3ccccc23)CN1C(=O)[C@@H](NC(=O)[C@@H](NC(C)=O)C1CCCCC1)C(C)C)C(=O)O (single isomer, unassigned) | 4.49
CC(=O)N[C@H](C(=O)N[C@H](C(=O)N1C[C@H](OCc2cccc3ccccc23)C[C@H]1C(=O)N[C@]1(C(=O)O)C[C@H]1Cc1ccccc1)C(C)C)C1CCCCC1 | 4.85

1 = CC(=O)N[C@H](C(=O)N[C@H](C(=O)N1CC(OCc2cccc3ccccc23)CC1C(=O)N[C@]1(C(=O)O)C[C@H]1C)C(C)C)C1CCCCC1 (single isomer, unassigned)
2 = CC(=O)N[C@H](C(=O)N[C@H](C(=O)N1CC(OCc2ccccc2)CC1C(=O)NC1(C(=O)O)CC1)C(C)C)C1CCCCC1 (single isomer, unassigned)
3 = COc1ccc2c(OC3CC(C(=O)NC4(C(=O)O)CC4)N(C(=O)[C@@H](NC(=O)[C@@H](NC(C)=O)C4CCCCC4)C(C)C)C3)ccnc2c1 (single isomer, unassigned)
4 = CC(=O)N[C@H](C(=O)N[C@H](C(=O)N1C[C@H](OCc2cccc3ccccc23)C[C@H]1C(=O)N[C@@]1(C(=O)O)C[C@@H]1CCc1ccccc1)C(C)C)C1CCCCC1
5 = C=C[C@@H]1C[C@]1(NC(=O)[C@@H]1C[C@@H](Oc2cc(-c3ccccc3)nc3ccccc23)CN1C(=O)[C@@H](NC(=O)[C@@H](NC(C)=O)C1CCCCC1)C(C)C)C(=O)O (Ac-[Chg]V[Hyp(2-Ph-quinolin-4-yl)][Ac3c(1R,2S-2-vinyl)]-OH)
[ask] Please rank these compounds by pIC50 in descending order. // respond by listing labels in the order requested
[reply] 5, 3, 1, 4, 2
(5: 7.72, 3: 6.07, 1: 4.66, 4: 4.05, 2: 3.48)
